Task for the reader: assign each of the following compounds its reported Kp.
- ASSAY DETAILS: Ratio of drug level in brain to blood in iv dosed mouse
- Type: ADME, organism-based
- ASSAY SETUP: brain/whole blood, read-out: BBR
# output: bare number, no unit

Reported Kp of `CCOC(=O)C1=C[C@@H](OC(CC)CC)[C@H](N[11C](C)=O)[C@@H](N)C1` : 0.07

Reported Kp of `CCC(CC)O[C@@H]1C=C(C(=O)O)C[C@H](N)[C@H]1N[11C](C)=O` : 0.06

Each recorded value in this set is attributed to ChEMBL document CHEMBL1141484.
